These measurements were taken from patent US9630947B2.

So I've got IC50 readings for purified STEP46 enzyme (Homo sapiens), take a look.

structure_smiles_string=CNc1nc(-c2cccnc2)nc2ccc(-c3cc(F)c(F)cc3F)cc12 result="1000 to 10000 nM"
structure_smiles_string=Clc1ccc(Nc2nc(-c3ccnnc3)nc3ccccc23)cc1Cl result="< 1000 nM"
structure_smiles_string=NC(=O)c1ccccc1Nc1nc(-c2cccnc2)nc2cc(-c3ccc(F)c(F)c3)ccc12 result="< 1000 nM"
structure_smiles_string=CN(C)c1nc(-c2cccnc2)nc2ccc(-c3ccc(F)cc3F)cc12 result="1000 to 10000 nM"
structure_smiles_string=Clc1cc(Cl)cc(Nc2nc(-c3ccnnc3)nc3ccccc23)c1 result="< 1000 nM"
structure_smiles_string=CNc1nc(-c2cccnc2)nc2cc(-c3cccc(F)c3F)ccc12 result="1000 to 10000 nM"
structure_smiles_string=COc1ccc2nc(-c3ccnnc3)nc(Nc3cccc(C#N)c3)c2c1 result="< 1000 nM"
structure_smiles_string=CNc1nc(-c2cccnc2)nc2c(C)c(-c3cccc(F)c3)ccc12 result="> 10000 nM"

Using purified STEP46 enzyme (Homo sapiens) as the test system, report measured IC50 of `CNc1nc(-c2cccnc2)nc2cc(-c3cc(F)ccc3F)ccc12` .
1000 to 10000 nM

Return reported IC50 for target or system purified STEP46 enzyme (Homo sapiens), item `Cc1cc(Cl)cc2c(Nc3ccc(F)c(Cl)c3)nc(-c3cnccn3)nc12` .
1000 to 10000 nM

State measured IC50 of the compound `COc1cncc(-c2ccc3nc(-c4cccnc4)nc(Nc4ccc(F)c(Cl)c4)c3c2)c1` with purified STEP46 enzyme (Homo sapiens).
< 1000 nM

Report IC50 from purified STEP46 enzyme (Homo sapiens) testing of `COc1ccc2nc(-c3cccnc3)nc(Nc3nc(-c4ccc(C#N)cc4)cs3)c2c1`
< 1000 nM

Quote purified STEP46 enzyme (Homo sapiens) IC50 for entry `COc1ccc2nc(-c3cccnc3)nc(Nc3nc4ccccc4n3C)c2c1` .
1000 to 10000 nM

###

Target protein (sequence): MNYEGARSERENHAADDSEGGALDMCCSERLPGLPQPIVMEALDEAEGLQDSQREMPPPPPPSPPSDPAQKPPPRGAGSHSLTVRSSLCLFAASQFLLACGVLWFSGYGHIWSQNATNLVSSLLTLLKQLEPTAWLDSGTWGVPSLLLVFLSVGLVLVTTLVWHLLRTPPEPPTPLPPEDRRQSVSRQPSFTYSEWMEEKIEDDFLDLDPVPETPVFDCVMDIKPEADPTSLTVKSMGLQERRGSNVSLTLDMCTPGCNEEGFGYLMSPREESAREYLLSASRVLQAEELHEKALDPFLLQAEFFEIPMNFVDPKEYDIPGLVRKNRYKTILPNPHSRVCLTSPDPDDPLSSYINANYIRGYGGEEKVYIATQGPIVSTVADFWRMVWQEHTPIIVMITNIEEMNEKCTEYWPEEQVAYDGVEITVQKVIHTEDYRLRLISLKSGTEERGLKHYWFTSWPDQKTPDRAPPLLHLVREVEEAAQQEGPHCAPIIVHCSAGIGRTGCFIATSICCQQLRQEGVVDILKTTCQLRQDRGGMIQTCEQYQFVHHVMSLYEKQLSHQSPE
Below, each entry is listed alongside its reported IC50.

structure_smiles_string=Cc1ccc(F)c(-c2ccc3nc(-c4cccnc4)nc(Nc4ccc(F)c(Cl)c4)c3c2)c1 result="< 1 µM"
structure_smiles_string=FC(F)Oc1cc(Cl)cc(Nc2nc(-c3cccnc3)nc3ccccc23)c1 result="1 to 10 µM"
structure_smiles_string=Fc1ccc(Nc2nc(-c3ccnnc3)nc3cc(Cl)ccc23)cc1Cl result="1 to 10 µM"

Next item in the queue.
Give recorded IC50. `COCCN(C)c1nc(-c2cccnc2)nc2ccc(-c3cccc(F)c3F)cc12`
> 10 µM

###

Target protein (sequence): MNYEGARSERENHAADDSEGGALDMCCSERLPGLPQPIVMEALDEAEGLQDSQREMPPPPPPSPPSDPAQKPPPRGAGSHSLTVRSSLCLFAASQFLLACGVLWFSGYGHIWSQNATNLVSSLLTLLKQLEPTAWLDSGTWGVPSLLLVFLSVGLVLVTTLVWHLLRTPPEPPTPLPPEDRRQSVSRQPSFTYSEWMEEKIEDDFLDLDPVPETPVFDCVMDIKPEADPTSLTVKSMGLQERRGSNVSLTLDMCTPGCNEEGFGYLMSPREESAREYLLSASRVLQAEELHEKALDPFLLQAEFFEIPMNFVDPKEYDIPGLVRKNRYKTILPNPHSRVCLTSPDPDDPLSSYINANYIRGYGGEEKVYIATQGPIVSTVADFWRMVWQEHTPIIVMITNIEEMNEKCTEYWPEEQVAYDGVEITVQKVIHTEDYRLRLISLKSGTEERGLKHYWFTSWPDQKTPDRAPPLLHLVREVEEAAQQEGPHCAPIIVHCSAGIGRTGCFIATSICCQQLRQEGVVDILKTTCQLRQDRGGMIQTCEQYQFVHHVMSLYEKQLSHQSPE
pIC50: −log10 of the molar value.
Below is a list of entries, each paired with its recorded pIC50 value.

structure_smiles_string=Fc1ccc(Nc2nc(-c3cccnc3)nc3cc(-c4cncnc4)ccc23)cc1Cl result="5.00 to 6.00"
structure_smiles_string=Fc1ccc(Nc2nc(-c3cnccn3)nc3ccccc23)cc1F result="< 5.00"
structure_smiles_string=Fc1ccc(Nc2nc(-c3cccnc3)nc3cc(-c4ccccc4)ccc23)cc1Cl result="> 6.00"
structure_smiles_string=COc1ccc2nc(-c3ccnnc3)nc(Nc3ccc(F)c(F)c3)c2c1 result="5.00 to 6.00"
structure_smiles_string=COc1ccc2nc(-c3cccnc3)nc(Nc3nc(-c4cccc(Cl)c4)cs3)c2c1 result="> 6.00"
structure_smiles_string=Fc1ccc(-c2ccc3c(Nc4cccc(OC(F)(F)F)c4)nc(-c4cccnc4)nc3c2)cc1 result="5.00 to 6.00"

Quote pIC50 reported for `COc1ccc2nc(-c3cccnc3)nc(Nc3nc(-c4ccccc4OC(F)(F)F)cs3)c2c1` please.
5.00 to 6.00

Please look at this compound and report its pIC50: `Fc1ccc(Nc2nc(-c3cccnc3)nc3ccc(-c4ccoc4)cc23)cc1Cl`
5.00 to 6.00

###

Listed below: IC50 values for each entry.
Biological target: purified STEP46 enzyme (Homo sapiens, UniProt P54829)
Assay: STEP46 biochemical assay (DiFMUP fluorescence phosphatase assay)
Conditions: DiFMUP 10 μM, read-out: STEP IC50

Using known records, supply IC50 for `CNc1nc(-c2cccnc2)nc2ccc(-c3cccc(F)c3F)c(C)c12`
> 10000 nM

Respond only with IC50 recorded for `COc1ccc2nc(-c3cccnc3)nc(Nc3nc(-c4cccc(Br)c4)cs3)c2c1`
1000 to 10000 nM

Hello, please tell me recorded IC50 for this one: `CNc1nc(-c2cccnc2)nc2c(C)cc(-c3ccccc3OC)cc12`
> 10000 nM

Name the recorded IC50 of the compound listed here: `O=[N+]([O-])c1cccc(-c2ccc3nc(-c4cccnc4)nc(Nc4ccc(F)c(Cl)c4)c3c2)c1`
< 1000 nM

Input `COc1cccc(-c2ccc3nc(-c4cccnc4)nc(Oc4ccc(F)c(F)c4)c3c2)c1` , output reported IC50.
1000 to 10000 nM

###

Target: purified STEP46 enzyme (Homo sapiens)
Sequence (P54829 1-565): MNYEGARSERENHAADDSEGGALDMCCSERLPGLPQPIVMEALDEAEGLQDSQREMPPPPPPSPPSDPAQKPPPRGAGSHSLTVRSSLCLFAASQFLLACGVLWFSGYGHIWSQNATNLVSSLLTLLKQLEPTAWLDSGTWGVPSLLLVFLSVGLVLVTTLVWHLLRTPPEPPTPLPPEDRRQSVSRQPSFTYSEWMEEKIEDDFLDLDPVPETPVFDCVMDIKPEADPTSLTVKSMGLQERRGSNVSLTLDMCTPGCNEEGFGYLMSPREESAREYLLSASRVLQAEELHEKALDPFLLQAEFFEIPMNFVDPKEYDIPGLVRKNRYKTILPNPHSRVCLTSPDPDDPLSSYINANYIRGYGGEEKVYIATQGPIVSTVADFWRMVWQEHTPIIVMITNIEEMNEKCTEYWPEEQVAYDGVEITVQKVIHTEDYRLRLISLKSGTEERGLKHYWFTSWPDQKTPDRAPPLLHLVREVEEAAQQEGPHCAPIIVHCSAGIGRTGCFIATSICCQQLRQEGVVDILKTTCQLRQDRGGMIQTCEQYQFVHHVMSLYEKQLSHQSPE
pIC50: −log10 of the molar value.
Measured pIC50, listed per entry for reference.

compound="COc1ccc2nc(-c3cccnc3)nc(Nc3nc(-c4cccc(C)c4)cs3)c2c1 [Compound 440]" subject_of_test="purified STEP46 enzyme (Homo sapiens)" result="5.00 to 6.00"
compound="COc1ccc2nc(-c3cccnc3)nc(Nc3ccc4nonc4c3)c2c1 [Compound 332]" subject_of_test="purified STEP46 enzyme (Homo sapiens)" result="> 6.00"
compound="FC(F)Oc1cccc(Nc2nc(-c3ccnnc3)nc3ccccc23)c1 [Compound 1183]" subject_of_test="purified STEP46 enzyme (Homo sapiens)" result="5.00 to 6.00"
compound="c1cncc(-c2ccc3nc(-c4cccnc4)nc(Nc4ccc5ccsc5c4)c3c2)c1 [Compound 313]" subject_of_test="purified STEP46 enzyme (Homo sapiens)" result="> 6.00"

Write down measured pIC50 (purified STEP46 enzyme (Homo sapiens)) for this compound. COc1ccc2nc(-c3cccnc3)nc(Nc3nc(-c4ccc(Cl)cc4)cs3)c2c1 [Compound 400]
5.00 to 6.00

Under purified STEP46 enzyme (Homo sapiens), report pIC50 for COc1ccc2nc(-c3cccnc3)nc(Nc3nc(-c4cc(F)ccc4F)cs3)c2c1 [Compound 458]
> 6.00

Fill: pIC50 (purified STEP46 enzyme (Homo sapiens)) for this compound Fc1ccc(Nc2nc(-c3ccnnc3)nc3cc(Cl)ccc23)cc1F [Compound 1202]
5.00 to 6.00

// fetch pIC50 for Cc1cccc(-c2ccc3nc(-c4cccnc4)nc(Nc4ccc(F)c(Cl)c4)c3c2)c1 [Compound 632] ; system: purified STEP46 enzyme (Homo sapiens)
> 6.00
